system: HOP-62 NSCLC; assay: NCI-60 one-dose screen, 48 h (100 = growth as untreated, 0 = no growth, -100 = all killed); details: 10 µM unless noted
The panel holds about 83,000 compounds, 20% with a hit somewhere; the sample as a whole holds those more often.
Measured growth by item
# output: bare number, implied unit %

response.value for "O=C(Nc1ccccc1)c1ccco1" (field: growth) = 101

# growth (compound: "Cc1ccc(C)c(CN(C)C)c1O" ) is 97.4

growth reading for "Cc1ccc(OC(=O)c2ccccc2)cc1" : 97.7

Briefly, growth measured for "COc1ccc(/C=N/NC(=O)COCC(=O)N/N=C/c2ccc(OC)cc2)cc1" : 117

Just so you know, measured growth for "COc1nc2ccccc2s1" came out at 114

Entry "COc1ccc(Br)c2c1C(=O)CC2" , growth reported as 116

For "c1ccc(Oc2c3ccccc3nc3ccccc23)cc1" the compound record lists growth as 16.1

The compound identified as "NC(=S)N/N=C/c1ccc(Cl)cc1" registered its growth at 113

The reported growth of the compound "O=S(=O)(O)c1cccc2cccnc12" was 101

====

tested on: MCF7 breast; experiment: NCI-60 one-dose screen, 48 h (100 = growth as untreated, 0 = no growth, -100 = all killed); conditions: 10 µM unless noted
The panel holds about 83,000 compounds, 20% with a hit somewhere; the sample as a whole holds those more often.
readout-name: growth (%)
Please state the figure in %; there is no need to write the unit.

"CN(C)c1ccc2c(N(C)C)cc(N(C)C)nc2c1" tested on MCF7 breast gave growth: 13.9

Assay MCF7 breast, sample "O=C(CCl)Oc1ccc([N+](=O)[O-])cc1" , growth read: 99.5

// assay MCF7 breast, entry "CCOc1ccncc1[N+](=O)[O-]" , growth value = 100

====

test system: NCI-H522 lung; experiment: NCI-60 one-dose screen, 48 h; conditions: 10 µM unless noted
This is part of a sample that, as a whole, favours compounds with a hit. Of some 83,000 tested, about 20% had one in any assay. Active and inactive are the calls of the source. How the source made its calls: active means growth percent below 10; inactive means the rest.
Choose one outcome from this list and give only that: TRUE (active), FALSE (inactive)

Worked examples, 6 compounds total:
[
  {
    "compound": "CC(=O)NC(CCc1ccc(Cl)c(Cl)c1)c1cccc(O)c(=O)c1 (configuration not stated)",
    "class": "FALSE"
  },
  {
    "compound": "CN(C)c1ccc(O)c2c1CC1CC3C(N(C)C)C(=O)C(C(N)=O)=C(O)C3(O)C(=O)C1=C2O (configuration not stated)",
    "class": "FALSE"
  },
  {
    "compound": "CC(=O)c1cc(O)ccc1O",
    "class": "FALSE"
  },
  {
    "compound": "Cc1cc(=O)n(Nc2ccccc2)c(O)c1C#N",
    "class": "FALSE"
  },
  {
    "compound": "O=Cc1ccc(F)cc1",
    "class": "FALSE"
  },
  {
    "compound": "O=C(O)CCCCCNC(=O)OCc1ccccc1",
    "class": "FALSE"
  }
]

I'd appreciate the recorded outcome for "Cc1cc(CO)c(O)c(CO)c1" from this test.
FALSE

GET /call?item= "Ic1cccs1" returns the recorded outcome of this test.
FALSE

Tell me the assay call for "COc1c(CNC(=O)CCl)cc2[nH]c(C)cc2c1CNC(=O)CCl" please.
TRUE

Per the assay record, what outcome was assigned to "COC(=O)Cc1cc(COC(C)=O)ccc1C" ?
FALSE

Short answer needed: outcome of this test for "CC(=O)/C(C)=N\OC(=O)Nc1ccccc1" ?
FALSE

Please state the recorded outcome for this compound: "CCOC(=O)CNC"
FALSE

I would be grateful if you could indicate the recorded call for "CCN(Cc1ccc(Cl)c(Cl)c1)c1ccc2nc(N)nc(N)c2c1C" .
TRUE

Name the outcome recorded for "OCCNc1ccccc1" in the assay.
FALSE

Hi, sorry to bother you, what did the test record for "CCC(/C=C\C(C)=O)CC" ?
FALSE

GET /call?item= "CC(=O)c1cccc(NS(=O)(=O)c2ccc(C)cc2)c1" returns the recorded outcome of this test.
FALSE

Write down the call the test reported for this compound. Item: "O=C(OC1CCCC1)c1ccccc1Cl"
FALSE

Which outcome did this test record for the compound "CN(CCCN(C)CCC1CCCCC1)CCC1CCCCC1" ?
FALSE

Outcome? CC(=O)OCC1OC(n2cnc3c(=S)nc(N)[nH]c32)C(OC(C)=O)C1OC(C)=O (configuration not stated)
FALSE

Tell me the recorded outcome of this test for "Cc1ccc(C)c(CN(C)C)c1O" .
FALSE

Data credit: PubChem BioAssay (NCI)
